# TARGET_SYSTEM: human recombinant Aurora A (Homo sapiens (Human), UniProt O14965)
# Sequence (O14965 whole entry): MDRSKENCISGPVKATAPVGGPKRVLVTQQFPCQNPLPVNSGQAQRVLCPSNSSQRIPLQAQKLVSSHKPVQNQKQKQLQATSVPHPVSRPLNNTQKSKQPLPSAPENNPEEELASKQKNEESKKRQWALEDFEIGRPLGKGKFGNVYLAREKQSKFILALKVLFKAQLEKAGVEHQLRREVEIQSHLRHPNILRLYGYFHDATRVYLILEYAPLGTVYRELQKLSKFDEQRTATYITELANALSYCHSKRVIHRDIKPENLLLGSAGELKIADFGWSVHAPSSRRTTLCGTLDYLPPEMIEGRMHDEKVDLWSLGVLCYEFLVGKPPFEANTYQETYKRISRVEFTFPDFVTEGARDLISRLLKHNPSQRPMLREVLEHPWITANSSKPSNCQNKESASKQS
# ASSAY_OVERVIEW: Aurora A Kinase Biochemical Assay (ADP-Glo)
# EXPERIMENTAL_PARAMETERS: ratio of Aurora A IC50 to PLK4 IC50 (selectivity)
RECORDED_ENDPOINT: [Aurora A IC50 (nM)]/[PLK4 IC50 (nM)]

> print(dat)
                                   compound                      recorded.endpoint  meas.value
1  COc1ccc2c(c1)[C@]1(C[C@H]1c1ccc3c(Nc4ncc(S(=O)(=O)N5CCCO5)cc4OC)n[nH]c3c1)C(=O)N2 [Example 267]  [Aurora A IC50 (nM)]/[PLK4 IC50 (nM)]    789.0376
2  COc1ccc2c(c1)[C@]1(C[C@H]1c1ccc3c(Nc4nc(N5CCC(F)(F)CC5)ncc4OC)n[nH]c3c1)C(=O)N2 [Example 189]  [Aurora A IC50 (nM)]/[PLK4 IC50 (nM)]    383.7321
3  COc1ccc2c(c1)[C@]1(C[C@H]1c1ccc3c(Nc4cc(C)ccc4OC)n[nH]c3c1)C(=O)N2 [Example 148]  [Aurora A IC50 (nM)]/[PLK4 IC50 (nM)]    397.3799
4  COc1ccc2c(c1)[C@]1(C[C@H]1c1ccc3c(Nc4c(OC)cnn4C)n[nH]c3c1)C(=O)N2 [Example 75]  [Aurora A IC50 (nM)]/[PLK4 IC50 (nM)]    173.4097
5  CCOc1cc(C(=O)N(C)C)cnc1Nc1n[nH]c2cc([C@@H]3C[C@@]34C(=O)Nc3ccc(OC)cc34)ccc12 [Example 203]  [Aurora A IC50 (nM)]/[PLK4 IC50 (nM)]   2922.2649
6  COc1cnc(C)nc1Nc1n[nH]c2cc([C@@H]3C[C@]34C(=O)Nc3ccc(OC(F)(F)F)cc34)ccc12 [Example 139]  [Aurora A IC50 (nM)]/[PLK4 IC50 (nM)]         7.4
7  COc1ccc2c(c1)[C@]1(C[C@H]1c1ccc3c(Nc4nc(C5COC5)ncc4OC(F)F)n[nH]c3c1)C(=O)N2 [Example 141]  [Aurora A IC50 (nM)]/[PLK4 IC50 (nM)]    327.4181

====

In this section, each of the molecules is paired with its reported [Aurora B IC50 (nM)]/[PLK4 IC50 (nM)].
# TARGET_SYSTEM: human recombinant Aurora B (Homo sapiens (Human), UniProt Q96GD4)
# Sequence (Q96GD4 whole entry): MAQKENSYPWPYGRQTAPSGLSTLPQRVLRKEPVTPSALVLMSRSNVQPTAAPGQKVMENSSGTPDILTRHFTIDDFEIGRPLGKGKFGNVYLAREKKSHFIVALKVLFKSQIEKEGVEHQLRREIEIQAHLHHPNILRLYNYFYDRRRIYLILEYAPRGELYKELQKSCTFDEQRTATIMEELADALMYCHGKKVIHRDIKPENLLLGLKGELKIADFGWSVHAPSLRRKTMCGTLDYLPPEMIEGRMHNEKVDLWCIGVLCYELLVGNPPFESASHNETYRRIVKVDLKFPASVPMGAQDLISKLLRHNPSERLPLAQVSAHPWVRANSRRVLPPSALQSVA
# ASSAY_OVERVIEW: Aurora B Kinase Biochemical Assay (ADP-Glo)
# EXPERIMENTAL_PARAMETERS: ratio of Aurora B IC50 to PLK4 IC50 (selectivity)
RECORDED_ENDPOINT: [Aurora B IC50 (nM)]/[PLK4 IC50 (nM)]

> print(dat)
                                   molecule                      recorded.endpoint  meas.value
1  COc1ccc2c(c1)[C@]1(C[C@H]1c1ccc3c(Nc4nc(C)nc(N5CCS(=O)(=O)CC5)c4Cl)n[nH]c3c1)C(=O)N2 [Example 58]  [Aurora B IC50 (nM)]/[PLK4 IC50 (nM)]    140.6736
2  COc1cnc(C)nc1Nc1n[nH]c2cc([C@@H]3C[C@]34C(=O)Nc3cccc(F)c34)ccc12 [Example 130]  [Aurora B IC50 (nM)]/[PLK4 IC50 (nM)]     60.1890
3  COc1ccc2c(c1)[C@]1(C[C@H]1c1ccc3c(Nc4c(OC)cnn4C)n[nH]c3c1)C(=O)N2 [Example 75]  [Aurora B IC50 (nM)]/[PLK4 IC50 (nM)]       23.28
4  CCn1nc(C2CC2)cc1Nc1n[nH]c2cc([C@@H]3C[C@@]34C(=O)Nc3ccc(OC)cc34)ccc12 [Example 92]  [Aurora B IC50 (nM)]/[PLK4 IC50 (nM)]       76.36
5  COc1ccc2c(c1)[C@]1(C[C@H]1c1ccc3c(Nc4nc(S(C)(=O)=O)ccc4OC)n[nH]c3c1)C(=O)N2 [Example 196]  [Aurora B IC50 (nM)]/[PLK4 IC50 (nM)]    100.8137
6  COc1ccc2c(c1)[C@]1(C[C@H]1c1ccc3c(Nc4ncc(C(F)(F)F)cc4OC)n[nH]c3c1)C(=O)N2 [Example 158]  [Aurora B IC50 (nM)]/[PLK4 IC50 (nM)]     51.7286
7  COc1ccc2c(c1)[C@]1(C[C@H]1c1ccc3c(Nc4ccc(C(=O)N(C)C(C)C)nc4OC)n[nH]c3c1)C(=O)N2 [Example 194]  [Aurora B IC50 (nM)]/[PLK4 IC50 (nM)]    103.7306

Values from patent US20230365537A1
